Data credit: patent US20180193454A1

- system: T1, human CD154 (human, UniProt P29965 113-261, limits assumed)
- T1 construct: also called CD154 antigen; CD40L
- T1 sequence (looked up): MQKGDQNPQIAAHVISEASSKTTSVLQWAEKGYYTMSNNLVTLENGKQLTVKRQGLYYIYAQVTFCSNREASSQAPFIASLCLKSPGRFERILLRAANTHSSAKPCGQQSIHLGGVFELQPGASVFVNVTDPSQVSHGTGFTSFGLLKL
- procedureSummary: SPR, Biacore 3000, 25 C; antibody immobilized, CD154 antigen flowed over; average n = 6
Please respond with reported koff for every item in the list.
Give the quantity in s⁻¹, number only.

Entry under test: variant 22, humanized anti-human CD154 antibody derived from IDEC-131 (antibody, V domains shown) VH: EVQLQESGPGLVKPSETLSLTCTVSGDSITNGFWIWIRKPPGNKLEYMGYISYSGSTYYNPSLKSRISISRDTSKNQFSLKLSSVTAADTGVYYCAYRSYGRTPYYFDYWGQGTTLTVSS VL: DIVMTQSPSFLSASVGDRVTITCKASSNLGNAVAWYQQKPGKSPKLLIYSASNRYTGVPDRFSGSGSGTDFTLTISSLQPEDFADYFCQQYDDYPYTFGGGTKLEIK . Its koff was 0.000117

koff in this record for INX021 (variant 21), humanized anti-human CD154 IgG1 antibody derived from IDEC-131 (antibody, V domains shown) VH: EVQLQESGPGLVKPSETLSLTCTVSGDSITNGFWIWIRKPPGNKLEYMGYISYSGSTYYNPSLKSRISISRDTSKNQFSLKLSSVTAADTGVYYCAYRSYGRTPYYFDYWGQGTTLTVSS VL: DIVMTQSPSFLSASVGDRVTITCKASSNLGHAVAWYQQKPGKSPKLLIYSASNRYTGVPDRFSGSGSGTDFTLTISSLQPEDFADYFCQQYDDYPYTFGGGTKLEIK : 0.000128

Recorded koff (binder IDEC-131, humanized anti-human CD154 IgG1 antibody (antibody, V domains shown, Humanized human IgG1 derived from mouse antibody 24-31) VH: EVQLQESGPGLVKPSETLSLTCTVSGDSITNGFWIWIRKPPGNKLEYMGYISYSGSTYYNPSLKSRISISRDTSKNQFSLKLSSVTAADTGVYYCACRSYGRTPYYFDFWGQGTTLTVSS VL: DIVMTQSPSFLSASVGDRVTITCKASQNVITAVAWYQQKPGKSPKLLIYSASNRYTGVPDRFSGSGSGTDFTLTISSLQPEDFADYFCQQYNSYPYTFGGGTKLEIK ): 0.000525

Lab book: koff of variant 23, humanized anti-human CD154 antibody derived from IDEC-131 (antibody, V domains shown, also called combination #23) VH: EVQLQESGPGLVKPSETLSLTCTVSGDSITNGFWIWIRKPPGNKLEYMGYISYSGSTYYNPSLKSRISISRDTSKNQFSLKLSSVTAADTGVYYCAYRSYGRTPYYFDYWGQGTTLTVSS VL: DIVMTQSPSFLSASVGDRVTITCKGSSPLGHAVAWYQQKPGKSPKLLIYSASNRYTGVPDRFSGSGSGTDFTLTISSLQPEDFADYFCQQYDDYPYTFGGGTKLEIK noted as 0.000141

Per the records, this binder ( variant 27, humanized anti-human CD154 antibody derived from IDEC-131 (antibody, V domains shown) VH: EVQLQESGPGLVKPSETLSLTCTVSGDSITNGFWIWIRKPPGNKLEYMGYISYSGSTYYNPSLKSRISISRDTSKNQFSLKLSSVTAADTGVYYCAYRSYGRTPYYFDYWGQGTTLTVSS VL: DIVMTQSPSFLSASVGDRVTITCKASQHLGHAVAWYQQKPGKSPKLLIYSASNRYTGVPDRFSGSGSGTDFTLTISSLQPEDFADYFCQQYDDYPYTFGGGTKLEIK ) has koff equal to 0.00012

Short answer for variant 31, humanized anti-human CD154 antibody derived from IDEC-131 (antibody, V domains shown) VH: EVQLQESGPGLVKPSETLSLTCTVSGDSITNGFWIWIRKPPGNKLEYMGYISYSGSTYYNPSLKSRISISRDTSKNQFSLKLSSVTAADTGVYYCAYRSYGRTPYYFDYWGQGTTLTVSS VL: DIVMTQSPSFLSASVGDRVTITCKANQPLGHAVAWYQQKPGKSPKLLIYSASNRYTGVPDRFSGSGSGTDFTLTISSLQPEDFADYFCQQYDDYPYTFGGGTKLEIK : koff was 0.000123

The binder listed as variant 28, humanized anti-human CD154 antibody derived from IDEC-131 (antibody, V domains shown) VH: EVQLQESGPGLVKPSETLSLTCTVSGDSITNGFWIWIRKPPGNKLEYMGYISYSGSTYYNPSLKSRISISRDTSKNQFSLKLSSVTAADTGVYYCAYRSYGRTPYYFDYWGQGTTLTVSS VL: DIVMTQSPSFLSASVGDRVTITCKAPSSLGHAVAWYQQKPGKSPKLLIYSASNRYTGVPDRFSGSGSGTDFTLTISSLQPEDFADYFCQQYDDYPYTFGGGTKLEIK has a reported koff of 0.000115

Memo: variant 29, humanized anti-human CD154 antibody derived from IDEC-131 (antibody, V domains shown) VH: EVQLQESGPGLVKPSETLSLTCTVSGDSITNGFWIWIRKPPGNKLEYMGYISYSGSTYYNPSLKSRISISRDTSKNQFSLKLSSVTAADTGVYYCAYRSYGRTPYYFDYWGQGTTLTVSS VL: DIVMTQSPSFLSASVGDRVTITCKGNQPLGHAVAWYQQKPGKSPKLLIYSASNRYTGVPDRFSGSGSGTDFTLTISSLQPEDFADYFCQQYDDYPYTFGGGTKLEIK , reported koff: 0.000133

response.value for variant 24, humanized anti-human CD154 antibody derived from IDEC-131 (antibody, V domains shown) VH: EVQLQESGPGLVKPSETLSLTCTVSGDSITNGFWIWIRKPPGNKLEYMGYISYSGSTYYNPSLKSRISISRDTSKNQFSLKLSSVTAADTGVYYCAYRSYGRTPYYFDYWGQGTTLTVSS VL: DIVMTQSPSFLSASVGDRVTITCKAPQNLGTAVAWYQQKPGKSPKLLIYSASNRYTGVPDRFSGSGSGTDFTLTISSLQPEDFADYFCQQYDDYPYTFGGGTKLEIK (field: koff) = 0.000135

For variant 30, humanized anti-human CD154 antibody derived from IDEC-131 (antibody, V domains shown) VH: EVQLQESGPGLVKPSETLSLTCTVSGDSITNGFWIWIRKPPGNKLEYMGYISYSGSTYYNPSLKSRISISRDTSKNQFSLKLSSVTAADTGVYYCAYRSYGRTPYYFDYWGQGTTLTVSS VL: DIVMTQSPSFLSASVGDRVTITCKAGHSLGTAVAWYQQKPGKSPKLLIYSASNRYTGVPDRFSGSGSGTDFTLTISSLQPEDFADYFCQQYDDYPYTFGGGTKLEIK the binder record lists koff as 0.00014
